Data origin: PubChem BioAssay

compounds and their reported inhibition
Experiment: inhibitors of Sendai virus-induced IRF3 signaling, primary screen, TLR/RLR signaling modifier project, cell-based, Sendai virus stimulus, luciferase, 10K MLSCN set (AID 602276);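 note: firefly luciferase from ISG56 promoter only with Renilla not read in this screen; 0% = Sendai virus plus DMSO and 100% = medium plus DMSO without virus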
Conditions: HEK293 RL24 IRF3 luciferase reporter, at 10 µM, active compounds read high
# number only, unit % dropped from output

// worked examples, inhibition included
In [3]: df
Out[3]:
                                   compound  property_name  units_label  obs_value
0  COc1cc2[nH]c(=O)c(C(=O)NCCCN3CCCCC3)c(O)c2cc1OC     inhibition            %      -5.59
1  CCOC(=O)c1cc2n(n1)C(C(F)(F)C(F)(F)F)CC(C)N2 (stereo unspecified)     inhibition            %       11.4
2  N#Cc1c(NC(NC(=O)c2ccco2)C(=O)c2ccccc2)sc2c1CCCC2 (stereo unspecified)     inhibition            %       5.59
3              Cc1nn(-c2ccccc2)c(C)c1/C=N/O     inhibition            %       -8.9
4  CCCCCn1c(CN2CCN(C(=O)c3ccco3)CC2)nc2c1c(=O)n(C)c(=O)n2C     inhibition            %       1.47
5  CCC(C)NC(=O)CC1Oc2ccc(C)cc2NC1=O (stereo unspecified)     inhibition            %       2.24
6  CCOCCCNC(=O)C1CCCN(S(=O)(=O)CC)C1 (stereo unspecified)     inhibition            %       15.1
7  O=C(COC(=O)C12CC3CC(CC(C3)C1)C2)NCc1ccco1     inhibition            %       11.1

# input for lookup
Looking up "COc1ccc(-c2nc(C#N)c(N3CCN(c4ccccc4)CC3)o2)cc1" , I see its inhibition listed as 5.66

====

Assay: inhibitors of TNFa-induced NFkB p65 translocation, primary screen, imaging, HUVEC, MLSMR starter and 10KST1 sets (AID 438);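 note: compound added about 3h40 before a 20 min TNFalpha stimulation; signal is the nuclear over cytoplasmic p65 intensity ratio per well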
Details: HUVEC TNFa-induced p65 nuclear translocation; at 2 µM, active compounds read high, 0% TNFa-plus-vehicle, 100% no-TNFa wells
PROPERTY_NAME: inhibition (%)
# number only, unit % dropped from output

// worked examples, inhibition included
>>> df
                                   compound  property_name  units_label  obs_value
0  CC1CCN(S(=O)(=O)c2cccc(C(=O)Nc3ccccn3)c2)CC1     inhibition            %       -4.3
1         CCc1nc2n[nH]c(N)c2c2c1CSC(C)(C)C2     inhibition            %       -0.8
2  COc1ccc(OC)c(C2C(C(=O)Nc3ccc(F)cc3)=C(C)Nc3nc(CCCO)nn32)c1 (stereo unspecified)     inhibition            %        7.1
3     CN(C)CCCn1c(NC(=O)C2CCCCC2)nc2ccccc21     inhibition            %        9.7
4  CCN1CCN(CCCNC(=O)C2c3ccccc3C(=O)N(C)C2c2ccc(OC)cc2)CC1 (stereo unspecified)     inhibition            %       15.4

Looking up "CC1CCN(c2ncnc3c2cnn3Cc2ccc(Cl)cc2)CC1" , I see its inhibition listed as -8.1

Looking up "OCc1cn(-c2ccccc2)nc1-c1ccc2c(c1)OCCO2" , I see its inhibition listed as 4.2

Looking up "C=CCc1c(C)nc(SC)nc1Nc1ccc(C(=O)O)cc1" , I see its inhibition listed as 7.2

====

Assay: inhibitors of poly I:C-induced TLR3 signaling, primary screen, cell-based, poly I:C stimulus, luciferase, 10K MLSCN set (AID 602277)
Conditions: HEK293-TLR3 RL24 IRF3 luciferase reporter, at 10 µM, active compounds read high
Activity calls are given as the source filed them.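 The calls were made as follows: active = inhibition of the reporter signal at or above 50%; inactive = inhibition below 50%.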
compounds and their reported inhibition

// worked examples, inhibition included
                                   compound  property_name         obs_value
0  CCc1nnc(NC(=O)c2ccc(S(=O)(=O)N(CC(C)C)CC(C)C)cc2)o1     inhibition  15.2% (inactive)
1               Cc1ccc(-c2nc3ccccc3[nH]2)s1     inhibition  -155% (inactive)
2  CCOc1ccccc1C1C(C(=O)Nc2ccc(OC)cc2)=C(C)Nc2nc(CCCO)nn21 (centres undefined)     inhibition  17.2% (inactive)
3  CN1CCN(Cc2nc3c(c(=O)[nH]c(=O)n3C)n2CCc2ccccc2)CC1     inhibition  39.3% (inactive)
4                Cc1ccc(NC(=O)CCC(=O)O)cc1F     inhibition  24.4% (inactive)

Looking up COc1cccc(-c2nc3n(n2)C(c2cccs2)C(C(=O)Nc2cccnc2)=C(C)N3)c1 (centres undefined) , I see its inhibition listed as 32.8% (inactive)

Looking up "COc1ccc2[nH]c(=O)c(CN(C(=O)c3ccncc3)C(C)C)cc2c1" , I see its inhibition listed as 37.7% (inactive)

Looking up "O=C(c1ccccc1-c1ccccc1)N1CCN(c2ccccn2)CC1" , I see its inhibition listed as 26.8% (inactive)

Looking up "COc1ccc(C)cc1NC(=O)CCC(=O)Nc1ccc2nc(N3CCN(C)CC3)cc(C)c2c1" , I see its inhibition listed as -51.1% (inactive)

Looking up "CCOC(=O)CNC(=O)CSc1nc(N)cc(N)n1" , I see its inhibition listed as 8.68% (inactive)

Looking up "O=C(Nc1ccccc1)N(O)c1ccc(Cl)cc1" , I see its inhibition listed as -78.3% (inactive)

Looking up CC1CN=C(N(C(=O)Nc2ccccc2)c2ccc(S(=O)(=O)N3CCOCC3)cc2)S1 (centres undefined) , I see its inhibition listed as 6.41% (inactive)

====

Assay: inhibitors of E-selectin induction by TNFa, primary screen, imaging, HUVEC, immunofluorescence, MLSMR starter and 10KST1 sets (AID 487);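 note: signal is fraction of cell area covered by stained E-selectin grains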
Conditions: HUVEC TNFalpha-induced E-selectin immunofluorescence imaging, at 2 µM; active compounds read high
PROPERTY_NAME: inhibition (%)
# number only, unit % dropped from output

>>> df
                                   compound  obs_value
0  CCC1Oc2ccc(C)cc2N(CC(=O)N(Cc2cccnc2)Cc2ccc(C)o2)C1=O (stereo unspecified)       -9.6
1  CCOc1ccc(C2C=C(c3ccccc3)Nc3ncnn32)cc1 (stereo unspecified)       58.8
2  COCCn1nnnc1C(c1cccs1)N1CCN(c2cc(C)ccc2C)CC1 (stereo unspecified)       -2.6

Looking up "COCCn1c(SCc2c(F)cccc2Cl)nc2c1c(=O)[nH]c(=O)n2C" , I see its inhibition listed as -11.2

Looking up "O=C(CN1C(=O)CCS(=O)(=O)c2ccccc21)NCc1ccc(F)cc1" , I see its inhibition listed as -92.3

Looking up "NC(=O)c1ccccc1NC(=O)CCCN1C(=O)CCC1=O" , I see its inhibition listed as -30.7

====

Assay: inhibitors of E-selectin induction by TNFa, primary screen, imaging, HUVEC, immunofluorescence, MLSMR starter and 10KST1 sets (AID 487);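 note: signal is fraction of cell area covered by stained E-selectin grains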
Conditions: HUVEC TNFalpha-induced E-selectin immunofluorescence imaging, at 2 µM; active compounds read high
Active and inactive are the calls of the source.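 The calls were made as follows: active = visually confirmed hit in the image check and inhibition above 20%; inconclusive = visually confirmed hit but inhibition not above 20%; inactive = no visual hit in the image check.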
compounds and their reported inhibition

// worked examples, inhibition included
>>> df
                                   compound          obs_value
0  CCN(CC)c1ccc(NC(=O)CN2CCN(CC(=O)Nc3ccccc3F)CC2)cc1  -45.9% (inactive)
1     CCOc1ccccc1C(=O)Nc1cc(=O)n(C)c(=O)n1C     31% (inactive)
2        O=c1[nH]cnc2c1C1(CCCC1)Cc1ccccc1-2  -22.8% (inactive)
3      CCN(CC)CCCNc1oc(-c2cccc(Cl)c2)nc1C#N  -37.9% (inactive)
4                 CNc1oc(-c2ccccc2Cl)nc1C#N   23.8% (inactive)

Looking up CCC(=O)NC1(C(F)(F)F)C(=O)Nc2c1c(=O)[nH]c(=O)n2Cc1ccco1 (stereo unspecified) , I see its inhibition listed as -96.3% (inactive)

Looking up "CCCn1c(SCC(=O)Nc2ccccc2C(=O)OC)nc2c1c(=O)n(C)c(=O)n2C" , I see its inhibition listed as -152% (inactive)

Looking up "CCOC(=O)C1CCN(c2c(N3CCCCCC3)c(=O)c2=O)CC1" , I see its inhibition listed as -84.4% (inactive)

====

Assay: inhibitors of E-selectin induction by TNFa, primary screen, imaging, HUVEC, immunofluorescence, MLSMR starter and 10KST1 sets (AID 487);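 note: signal is fraction of cell area covered by stained E-selectin grains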
Details: HUVEC TNFalpha-induced E-selectin immunofluorescence imaging, at 2 µM; active compounds read high
Classification field: fulfilled = inhibition at or over -50%; not fulfilled = inhibition under -50%.

// below: answered compounds
>>> print(df.to_string())
                                   compound  discrete_label
0  Cc1ccccc1OCc1nnc2n1CC(C)S2 (centres undefined)   not fulfilled
1  CCc1nnc(NC(=O)CSc2nnc(-c3cc4ccccc4cc3O)n2CC)s1   not fulfilled
2          CCOC(=O)c1ccccc1NC(=O)CSc1nccn1C       fulfilled
3               Cc1cc2ccccn2c1C(=O)c1ccncc1       fulfilled
4  CC(NC(=O)Nc1ccc(O)cc1)(C(F)(F)F)C(F)(F)F       fulfilled
5  CN(c1ccc(OCc2nnc(-c3ccccc3)o2)cc1)S(=O)(=O)c1ccccc1       fulfilled

Request: # bool: inhibition of "COc1ccc(C(=O)NCc2ccccc2OC)cc1" >= -50%
Result: fulfilled

Request: # bool: inhibition of "Fc1ccccc1Cn1nnc2c(-n3ccnc3)ncnc21" >= -50%
Result: not fulfilled

Request: # bool: inhibition of "CCOC(=O)N1CCN(c2c(NCCCOC(C)C)c(=O)c2=O)CC1" >= -50%
Result: fulfilled

Request: # bool: inhibition of "Clc1ccc(-n2ncc3c(NCc4ccco4)ncnc32)cc1" >= -50%
Result: fulfilled

Request: # bool: inhibition of COC(=O)C(NC(=O)c1ccccc1)(Nc1nc(C)cs1)C(F)(F)F (centres undefined) >= -50%
Result: fulfilled

Request: # bool: inhibition of "O=C(c1cc2ccccc2oc1=O)N1CCN(c2ccc(N3CCOCC3)nn2)CC1" >= -50%
Result: fulfilled

Request: # bool: inhibition of "O=C(CSc1nnc(C2CC2)n1Cc1ccccc1)c1ccc(S(=O)(=O)N2CCOCC2)cc1" >= -50%
Result: not fulfilled

Request: # bool: inhibition of CCC1(NC(C)=O)CC2CC1CC2NC(C)=O (centres undefined) >= -50%
Result: fulfilled

Request: # bool: inhibition of "Cc1nc(N2CCC(C)CC2)c2c(C)c(C(=O)O)sc2n1" >= -50%
Result: not fulfilled

Request: # bool: inhibition of COC(=O)N1CC(c2ccccc2)CC1=O (centres undefined) >= -50%
Result: not fulfilled
